Biological target: JAK3 kinase (Mus musculus (Mouse), UniProt Q62137)
Sequence (Q62137 whole entry): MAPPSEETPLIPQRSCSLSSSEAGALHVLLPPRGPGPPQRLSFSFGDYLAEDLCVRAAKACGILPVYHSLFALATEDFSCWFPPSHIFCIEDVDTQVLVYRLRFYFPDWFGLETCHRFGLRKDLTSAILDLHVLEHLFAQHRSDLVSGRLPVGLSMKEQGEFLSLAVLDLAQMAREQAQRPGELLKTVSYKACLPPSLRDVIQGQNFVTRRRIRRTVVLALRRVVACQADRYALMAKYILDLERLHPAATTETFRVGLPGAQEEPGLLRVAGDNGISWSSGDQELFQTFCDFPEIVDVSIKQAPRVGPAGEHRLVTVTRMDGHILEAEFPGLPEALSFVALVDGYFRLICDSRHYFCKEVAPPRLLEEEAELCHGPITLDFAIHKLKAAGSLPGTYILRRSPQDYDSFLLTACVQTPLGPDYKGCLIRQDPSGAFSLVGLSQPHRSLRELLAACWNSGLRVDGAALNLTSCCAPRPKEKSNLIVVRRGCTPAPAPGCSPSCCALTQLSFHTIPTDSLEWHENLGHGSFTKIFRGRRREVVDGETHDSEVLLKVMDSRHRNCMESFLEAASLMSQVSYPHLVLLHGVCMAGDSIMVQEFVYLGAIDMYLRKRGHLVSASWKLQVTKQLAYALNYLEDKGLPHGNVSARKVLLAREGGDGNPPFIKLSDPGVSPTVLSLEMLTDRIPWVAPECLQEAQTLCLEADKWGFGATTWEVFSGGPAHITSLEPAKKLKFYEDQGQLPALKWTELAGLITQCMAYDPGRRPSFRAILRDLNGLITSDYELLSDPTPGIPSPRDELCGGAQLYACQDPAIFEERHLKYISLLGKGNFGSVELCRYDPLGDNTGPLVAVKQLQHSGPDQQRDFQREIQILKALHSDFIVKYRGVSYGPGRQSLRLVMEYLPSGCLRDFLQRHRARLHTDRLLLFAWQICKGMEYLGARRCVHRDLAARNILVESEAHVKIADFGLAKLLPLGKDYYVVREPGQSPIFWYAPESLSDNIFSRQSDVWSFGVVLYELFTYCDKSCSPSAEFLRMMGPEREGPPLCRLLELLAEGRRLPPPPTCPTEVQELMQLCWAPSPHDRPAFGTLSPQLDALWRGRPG
Assay: JAK3-mediated cell assay (HT-2/IL-2 assay), STAT5 phosphorylation HTRF
Settings: STAT5 phosphorylation induced by IL-2 (20 ng/ml, 10 minutes) in HT-2 cells, compound treatment 30 minutes
property-measured: IC50 (nM)

C=CC(=O)N1CC[C@H](F)[C@H](Oc2nc(Nc3cnn(CC)c3)nc3[nH]ccc23)C1 (racemic) : 115
C=CC(=O)N1CC[C@@H](F)[C@H](Oc2nc(Nc3cc(C)ns3)nc3[nH]cc(Cl)c23)C1 (racemic) : 96
C=CC(=O)N1CC[C@@H](F)[C@H](Oc2nc(Nc3cnn(CC)c3)nc3[nH]cc(Cl)c23)C1 (racemic) : 72.3
C=CC(=O)N1CC[C@@H](F)[C@@H](Oc2nc(Nc3cnn(CC)c3)nc3[nH]ccc23)C1 : 101
C=CC(=O)N1CC[C@H](F)[C@@H](Oc2nc(Nc3cnn(CC)c3)nc3[nH]ccc23)C1 : 32.3
C=CC(=O)N1CC[C@@H](F)[C@H](Oc2nc(Nc3cnn(CC)c3)nc3[nH]ccc23)C1 (racemic) : 67.4
